biological target: T1, human BLyS (full length, arginine to histidine at position 132) on CHO-K1 cells (human, UniProt Q9Y275 1-285); experiment: flow cytometry, CHO-K1 hBLyS cells, antibody 13.3 nM
T1 construct: also called hBLyS; CHO-K1 hBLyS
T1 sequence (Q9Y275 whole entry R130H): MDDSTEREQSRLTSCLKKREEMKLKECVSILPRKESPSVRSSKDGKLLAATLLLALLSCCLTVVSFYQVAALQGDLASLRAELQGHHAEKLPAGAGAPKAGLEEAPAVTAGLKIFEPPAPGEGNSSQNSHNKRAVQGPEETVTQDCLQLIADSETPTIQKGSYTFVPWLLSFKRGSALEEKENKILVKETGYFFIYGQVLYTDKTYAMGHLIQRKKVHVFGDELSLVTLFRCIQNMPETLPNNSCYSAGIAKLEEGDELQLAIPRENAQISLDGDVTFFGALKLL
value_type: MFI (MFI)
Write the answer as a number in MFI, unit excluded.

>>> test_result("2-1G11 (antibody, V domains shown, From a human naive scFv phage library; also called human BLyS antibody 2-1G11) VH: EVQLVESRGGVVQPGRSLRLSCAASGFTFSSYGMHWVRQAPGKGLEWVAVISYDGSNKYYADSVKGRFTISRDNSKNTLYLQMNSLRAEDAAVYYCARDRVDILTGYSIYGMDVWGQGTTVTVSS VL: EIVMTQSPATLSLSPGERATLSCRASQSVSSYLAWYQQKPGQAPRLLIYDASKRATGIPARFSGSGSGTDFTLTISSLEPEDFAVYYCQQRSNWPLTFGGGTKVEIK")
633

Moving on to another binder below.
Retrieve MFI measured for 20D1B6E9E5 (antibody, V domains shown, Mouse hybridoma monoclonal antibody purified on Protein G) VH: EVQLQQSVAELVRPGASVKLSCTASDFNIKNTYIHWVKQRPEQGLEWIGRIDPVNGNTKYAPKFQDKATIIVDTYSNTAYLQLSSLASEDTAVYYCARWPITTIVATDWYFDVWGTGTTVTVSS VL: DVLMTQTQLALPVRLGEQASISCRSSQSIVNSNGNTYLEWYLQKPGQSPKLLIYKVSNRFSGVPDRFSGSGSGTDFTLKISRVEAEDLGVYYCFQGSHVPWTFGGGTKLEIK and print it. 498

Provenance of the data: patent US20210347873A1
